# Assay target: T1, Hse1, P38753
# T1 sequence (P38753 208-285, looked up): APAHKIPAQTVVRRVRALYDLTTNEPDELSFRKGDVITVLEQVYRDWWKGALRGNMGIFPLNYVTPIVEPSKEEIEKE
# Assay comment: SPOT array
# Assay context: median of control spots 1727
Documented SPOT intensity across a set of binders
Answer as a number with no unit attached.

Here is how some binders turned out for SPOT intensity.
>>> obs_value("KRNRLKILLPFLEQS")
25
>>> obs_value("RRASLFPRDPKRLRP")
79
>>> obs_value("NLPKRKPPKLQGPFS")
440

Problem: Item under review: "MTKTPETSPPKRPMG" . Reported SPOT intensity?
Result: 0

Problem: Item under review: "FTLPPPPPPPGLDEL" . Reported SPOT intensity?
Result: 0

Problem: Item under review: "YHSRRHPLALGFKYV" . Reported SPOT intensity?
Result: 0

Problem: Item under review: "DFTLPPPPPPPGLDE" . Reported SPOT intensity?
Result: 0
